# Target of assay: ABHD6 (Mus musculus, UniProt Q8R2Y0)
# Sequence (Q8R2Y0 whole entry): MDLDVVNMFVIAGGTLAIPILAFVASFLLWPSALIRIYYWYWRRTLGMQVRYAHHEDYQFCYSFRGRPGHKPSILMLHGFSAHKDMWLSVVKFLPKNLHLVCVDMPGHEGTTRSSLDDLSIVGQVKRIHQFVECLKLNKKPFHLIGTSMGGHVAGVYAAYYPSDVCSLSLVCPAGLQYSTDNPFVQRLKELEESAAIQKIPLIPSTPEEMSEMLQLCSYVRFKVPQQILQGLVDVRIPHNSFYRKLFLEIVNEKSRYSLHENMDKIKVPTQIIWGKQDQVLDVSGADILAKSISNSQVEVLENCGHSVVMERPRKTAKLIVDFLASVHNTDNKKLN
# Test method notes: In vitro competitive activity-based protein profiling (Table 2, % inhibition at 1 μM)
# Type: biochemical
# Condition summary: read-out: % Inhibition at 1 μM ABHD6
Would you kindly list inhibition at 1 µM for each of these molecules?

In [3]: df
Out[3]:
                                   molecule        test_readout  endpoint_result
0  O=C(OC(C(F)(F)F)C(F)(F)F)N1CC2CN(Cc3ccc(Cl)cc3N3Cc4cccnc4C3)CC2C1 (stereo not drawn)  inhibition at 1 µM        25 to 75%
1  O=C(ON1C(=O)CCC1=O)N1CC2CN(Cc3ccc(C(=O)N4CCC4)cc3Cl)CC2C1 (stereo not drawn)  inhibition at 1 µM            < 25%
2  CCn1cc(CN2CC3CN(C(=O)OC(C(F)(F)F)C(F)(F)F)CC3C2)c(-c2cccnc2)n1 (stereo not drawn)  inhibition at 1 µM        25 to 75%
3  CCN1CCN(c2c(C)cccc2CN2CC3CN(C(=O)ON4C(=O)CCC4=O)CC3C2)CC1 (stereo not drawn)  inhibition at 1 µM            < 25%
4  CS(=O)(=O)N1CCC2(CCN(c3ccccc3CN3CC4CN(C(=O)OC(C(F)(F)F)C(F)(F)F)CC4C3)C2)C1 (stereo not drawn)  inhibition at 1 µM            < 25%

Please supply inhibition at 1 µM for each of the following items, keeping them in order.
1. Cc1ccc(CN2CC3CN(C(=O)OC(C(F)(F)F)C(F)(F)F)CC3C2)c(-c2ccccc2)c1 (stereo not drawn)
2. O=C(OC(C(F)(F)F)C(F)(F)F)N1CC2CN(Cc3ccc(Cl)cc3N3CCOC4CCCC43)CC2C1 (stereo not drawn)

Completion:
1. < 25%
2. < 25%

Please supply inhibition at 1 µM for each of the following items, keeping them in order.
1. O=C(OC(C(F)(F)F)C(F)(F)F)N1CC2CN(Cc3ccc(C(=O)N4CCCCC4)c(OC(F)(F)F)c3)CC2C1 (stereo not drawn)
2. O=C(OC(C(F)(F)F)C(F)(F)F)N1CC2CN(Cc3ccc(Cl)cc3N3CCC4(CCNC4=O)CC3)CC2C1 (stereo not drawn)
3. C#CCNC(=O)c1nn(CC)cc1CN1CC2CN(C(=O)OC(C(F)(F)F)C(F)(F)F)CC2C1 (stereo not drawn)

Completion:
25 to 75%
< 25%
< 25%
